Biological target: Voltage-gated inwardly rectifying potassium channel KCNH2 (Homo sapiens)
Sequence (Q12809 whole entry): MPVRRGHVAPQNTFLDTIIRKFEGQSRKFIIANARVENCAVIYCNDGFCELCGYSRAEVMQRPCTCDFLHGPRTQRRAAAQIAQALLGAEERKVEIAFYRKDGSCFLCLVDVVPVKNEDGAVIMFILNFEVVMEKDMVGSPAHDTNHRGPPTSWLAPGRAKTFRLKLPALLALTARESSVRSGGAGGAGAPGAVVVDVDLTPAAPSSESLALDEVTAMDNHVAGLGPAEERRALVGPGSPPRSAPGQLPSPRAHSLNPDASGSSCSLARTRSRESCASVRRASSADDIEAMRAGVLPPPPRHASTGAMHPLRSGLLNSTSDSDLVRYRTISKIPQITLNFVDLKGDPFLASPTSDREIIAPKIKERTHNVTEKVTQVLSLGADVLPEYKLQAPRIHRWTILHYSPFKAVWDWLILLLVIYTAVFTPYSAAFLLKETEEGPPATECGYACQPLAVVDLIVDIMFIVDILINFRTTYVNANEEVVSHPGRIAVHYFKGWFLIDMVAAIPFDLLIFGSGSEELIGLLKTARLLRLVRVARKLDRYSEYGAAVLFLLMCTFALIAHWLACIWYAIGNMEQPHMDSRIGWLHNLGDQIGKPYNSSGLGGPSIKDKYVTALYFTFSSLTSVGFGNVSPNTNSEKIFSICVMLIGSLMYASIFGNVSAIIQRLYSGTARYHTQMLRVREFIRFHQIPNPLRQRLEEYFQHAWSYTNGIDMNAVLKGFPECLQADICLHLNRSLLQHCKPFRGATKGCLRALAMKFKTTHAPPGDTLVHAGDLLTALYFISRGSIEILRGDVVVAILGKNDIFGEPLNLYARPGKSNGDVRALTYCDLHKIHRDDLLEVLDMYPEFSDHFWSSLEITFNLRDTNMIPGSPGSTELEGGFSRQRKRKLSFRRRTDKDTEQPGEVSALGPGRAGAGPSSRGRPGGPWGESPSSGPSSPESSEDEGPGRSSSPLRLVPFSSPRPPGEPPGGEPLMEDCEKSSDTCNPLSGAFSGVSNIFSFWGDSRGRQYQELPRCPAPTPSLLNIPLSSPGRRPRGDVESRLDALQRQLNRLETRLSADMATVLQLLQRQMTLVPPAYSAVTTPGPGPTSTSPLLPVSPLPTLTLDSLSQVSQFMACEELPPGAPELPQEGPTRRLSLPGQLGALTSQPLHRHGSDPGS
Assay: Inhibition of hERG by manual patch clamp assay
Assay type: toxicity
result_type: pIC50
In textbook form, pIC50 equals minus log to base ten of the concentration in mol/L.

c1cc(-c2ccc(Oc3ccc(CN4CCCC4)nc3)nc2)[nH]n1	4.72

# next molecule below
Ask | Which pIC50 value belongs to c1cc(-c2ccc(Oc3ccc(CN4CCCCC4)nc3)nc2)[nH]n1 ?
Reply | 4.57

----------
Test: physchem
Settings: buffer, pH 6.8
Description: Solubility of the compound at pH 6.8 using amorphous form of sample
result_type: solubility (µM)
Just the number in µM, nothing appended.

Ask | Please give the measured solubility for this compound: c1ccc(Oc2ccc(-c3c[nH]cn3)cc2)cc1
Reply | 121

----------
Assay: in vivo
Settings: C57/BL6, mouse, blood, po, 10 mg/kg
Description: Drug concentration in C57/BL6 mouse blood at 10 mg/kg, po bid measured after 14 hrs
# concentration at 14 h listing for each entry below
Value expressed in nM; do not type the unit.

N[C@@H](CC(=O)O)Cn1nnc(-c2ccc(Oc3ncc(Cl)cc3F)cc2)n1	184

Now for a further compound.
Ask | Entry c1ccc(Oc2ccc(-c3c[nH]cn3)cc2)cc1 : reported concentration at 14 h = ?
Reply | 218
